These measurements were taken from patent US20230113037A1.

target: AHR (Homo sapiens); construct: U87 MG glioblastoma cells (ATCC #HTB-14) endogenously expressing AHR; endogenous in cells; host or cells: U87 MG glioblastoma cells (ATCC #HTB-14); experiment: In vitro assay 1: antagonism in human cell line (AHR transactivation, firefly luciferase reporter, kynurenic acid prestimulated); type: cell-based; details: AHR Antagonism Human IC50 [M]
Sequence (P35869 11-848): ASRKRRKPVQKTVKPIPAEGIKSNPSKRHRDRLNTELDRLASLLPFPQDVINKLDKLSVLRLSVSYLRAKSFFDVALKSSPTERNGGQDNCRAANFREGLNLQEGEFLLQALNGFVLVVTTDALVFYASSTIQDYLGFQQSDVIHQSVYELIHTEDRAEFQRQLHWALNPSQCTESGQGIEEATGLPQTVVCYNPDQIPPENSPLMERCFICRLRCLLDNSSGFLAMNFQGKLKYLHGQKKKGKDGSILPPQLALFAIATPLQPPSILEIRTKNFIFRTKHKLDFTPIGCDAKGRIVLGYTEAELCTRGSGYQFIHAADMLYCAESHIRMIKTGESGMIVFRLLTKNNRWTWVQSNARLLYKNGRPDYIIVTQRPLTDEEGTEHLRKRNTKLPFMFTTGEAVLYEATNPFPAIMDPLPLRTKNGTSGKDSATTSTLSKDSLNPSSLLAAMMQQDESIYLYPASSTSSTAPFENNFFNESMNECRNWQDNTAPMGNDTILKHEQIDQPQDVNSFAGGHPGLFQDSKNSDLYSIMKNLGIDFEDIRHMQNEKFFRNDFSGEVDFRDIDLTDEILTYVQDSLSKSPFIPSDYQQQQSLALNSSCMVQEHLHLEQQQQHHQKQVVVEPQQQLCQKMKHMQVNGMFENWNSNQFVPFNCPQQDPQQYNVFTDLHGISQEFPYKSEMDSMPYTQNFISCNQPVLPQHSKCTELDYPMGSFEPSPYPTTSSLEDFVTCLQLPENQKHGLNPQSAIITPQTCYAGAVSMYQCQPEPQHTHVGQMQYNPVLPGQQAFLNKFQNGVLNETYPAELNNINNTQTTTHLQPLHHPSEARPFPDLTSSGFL
PROPERTY_LABEL: IC50 (M)
Field format: number, assumed M, no unit text.

Incoming: Supply recorded IC50 for COc1ccc(-c2nc3c4cc(OC)ccc4nc(N[C@@H]4CCCCNC4=O)n3n2)cc1 here.
Outgoing: 1.33e-08

Incoming: Supply recorded IC50 for O=C1NCCCCCC1Nc1nc2ccccc2c2nc(-c3cccc(OC(F)(F)F)c3)nn12 (stereo not shown) here.
Outgoing: 2.27e-08

Incoming: Supply recorded IC50 for CS(=N)(=O)c1ccc(-c2nc3c4ccccc4nc(N[C@@H]4CCCCNC4=O)n3n2)cc1 (stereo partly shown) [Example 306] here.
Outgoing: 1.09e-07

Incoming: Supply recorded IC50 for COc1cccc(-c2nc3c4c(C)cccc4nc(N[C@@H]4CCCCNC4=O)n3n2)c1 here.
Outgoing: 3.98e-09
